- experiment: qHTS RealTime-Glo MT Cell Viability Assay in HEK293 cells - 16 hour (AID 1224872); further: nearly all actives have a fitted effect of over 50% in size; further: potency means the concentration at half of the fitted maximal effect
- applied.conditions: RealTime-Glo luminescence; series mostly up to 76.8 µM
Inconclusive results are not listed. Active and inactive are the calls of the source. The call rests on the fitted dose curve; in most records, active means well fitted cell-killing curve with a large enough effect in the repeat runs; inconclusive means weak or mixed curves, or effect the other way; inactive means flat fitted curve, though single readings scatter.
recorded.metric: Potency

Sample answers from the record:
compound	measured.value
CCCCCCCCCCCCCOP(=O)(O)O	inactive
CCOC(=O)CN	inactive
CN(C)CCCN1c2ccccc2CCc2ccccc21	inactive
CC(C)(C)c1n[nH]c(=O)n(N)c1=O	inactive
Cc1c(C)n(Cc2ccccc2)c2ccc(C(=O)OCCN(C)C)cc12	inactive

Incoming: Name the reported Potency value associated with the compound Clc1ccc(C(Cn2ccnc2)OCc2ccsc2Cl)c(Cl)c1 (centres undefined)
Outgoing: 15.1 µM (active)

Incoming: // next record CCN(CC)CCOc1ccc(C(O)(Cc2ccc(Cl)cc2)c2ccc(C)cc2)cc1 (centres undefined)
Outgoing: 21.3 µM (active)

Incoming: // next record COc1cccc(OC)c1O
Outgoing: inactive

Incoming: // next record C=CC/C=C/C/C=C/C/C=C/C
Outgoing: inactive

====

- experiment: qHTS RealTime-Glo MT Cell Viability Assay in HepG2 cells - 16 hour (AID 1224885); further: nearly all actives have a fitted effect of over 50% in size
- applied.conditions: RealTime-Glo luminescence; series mostly up to 76.8 µM
Inconclusive results are not listed. The source made the active and inactive calls. The call rests on the fitted dose curve; in most records, active means well fitted cell-killing curve with a large enough effect in the repeat runs; inconclusive means weak or mixed curves; inactive means flat fitted curve, though single readings scatter.
Outcomes you can answer with include only these: T (active), F (inactive)

compound	class.assignment
O=Nc1ccc(NO)cc1	F

Incoming: GET /call?item= NCCCCCCNCCCCCCN returns the recorded outcome of this test.
Outgoing: F

Incoming: // next record O=C(NO)c1ccccc1
Outgoing: F

Incoming: // next record C=CC/C=C/C/C=C/C/C=C/C
Outgoing: F

Incoming: // next record COc1ccccc1OCCNCC(O)COc1cccc2[nH]c3ccccc3c12 (stereo not given)
Outgoing: T

Incoming: // next record CN1CN(C)CN(C)C1
Outgoing: F

Incoming: // next record C=C(C)CCCC
Outgoing: F

Incoming: // next record CN(C)CCCN1c2ccccc2CCc2ccccc21
Outgoing: F

Incoming: // next record CC(C)c1cccc(C(C)C)c1N1C(=O)c2ccc(O)cc2C1=O
Outgoing: T

====

- experiment: qHTS assay for small molecule agonists of the p53 signaling pathway (AID 651631); further: nearly all actives have a fitted effect of over 15% in size
- applied.conditions: HCT-116 p53RE-bla reporter, beta-lactamase FRET ratio, 16 h; series mostly up to 73.3 µM
Records with an inconclusive call do not appear. The source made the active and inactive calls. The call rests on the fitted dose curve.
Outcomes you can answer with include only these: active, inactive

See these solved cases before continuing.
compound	class.assignment
NC(=O)c1ccccc1N	inactive
C(=C/c1ccccc1)/c1ccccc1	inactive
N[C@@H](CSSC[C@H](N)C(=O)O)C(=O)O	inactive

Incoming: GET /call?item= CCNc1nc(NC(C)CC)nc(OC)n1 (stereo unspecified) returns the recorded outcome of this test.
Outgoing: inactive

Incoming: // next record CCCCCCCCCC(=O)N(C)C
Outgoing: inactive

Incoming: // next record ClC/C=C\CCl
Outgoing: inactive

====

- experiment: qHTS assay to identify small molecule agonists of the hypoxia (HIF-1) signaling pathway - cell viability counter screen (AID 1224844); further: nearly all actives have a fitted effect of over 50% in size
- applied.conditions: HRE-bla ME-180 viability, CellTiter-Glo luminescence, 17 h; series mostly up to 76.8 µM
Results filed as inconclusive are left out. Calls of active or inactive are those of the source. The call rests on the fitted dose curve.
Outcomes you can answer with include only these: True (active), False (inactive)

smiles.record	class.assignment
CC(=O)O[C@@H]1C[C@@H]2CC[C@@]1(C)C2(C)C	False
C(=C/c1ccccc1)/c1ccccc1	False
Brc1ccccc1-c1ccccc1	True
Cc1cccc(C)n1	False
O=C(Oc1ccccc1)c1cccc(C(=O)Oc2ccccc2)c1	False

Incoming: GET /call?item= NC(=O)C(=O)N/N=C/c1ccc([N+](=O)[O-])o1 returns the recorded outcome of this test.
Outgoing: False

Incoming: // next record CCN=C1C=CC(=C(c2ccc(N(CC)CC)cc2)c2ccc(N(CC)CC)cc2)c2ccccc21
Outgoing: True

Incoming: // next record O=C1c2c(O)ccc([N+](=O)[O-])c2C(=O)c2c([N+](=O)[O-])ccc(O)c21
Outgoing: True

====

- experiment: qHTS RealTime-Glo MT Cell Viability Assay in HEK293 cells - 8 hour (AID 1224887); further: nearly all actives have a fitted effect of over 50% in size
- applied.conditions: RealTime-Glo luminescence; series mostly up to 76.8 µM
Records with an inconclusive call do not appear. Calls of active or inactive are those of the source. Calls come from the whole dose curve; as a rule, active = well fitted cell-killing curve with a large enough effect in the repeat runs; inconclusive = weak or mixed curves, or effect the other way; inactive = flat fitted curve, though single readings scatter.
Outcomes you can answer with include only these: Yes (active), No (inactive)

See these solved cases before continuing.
compound	class.assignment
[O]=[Zr]	No
CCN=C1C=CC(=C(c2ccc(N(CC)CC)cc2)c2ccc(N(CC)CC)cc2)c2ccccc21	Yes
Cc1occc1SSc1ccoc1C	No
CCC(C)(C)c1cc(O)c(C(C)(C)CC)cc1O	Yes
CNC(=O)c1cc(Oc2ccc(NC(=O)Nc3ccc(Cl)c(C(F)(F)F)c3)cc2)ccn1	Yes
CCCCCCCCCCCC(=O)N(CC)CC	No
O=C1OC(=O)c2cccc3cccc1c23	No
C=C(C)C(=O)OCCC[Si](Cl)(Cl)Cl	No
c1cc2c3c(c1)ccc1cccc(c13)C2	No
NC(=O)c1nc(-c2cccc(-c3cc(F)ccc3OCC(F)(F)C(F)(F)F)c2)n[nH]1	No

Incoming: GET /call?item= CCCCCCC(C)Nc1ccc(Nc2ccccc2)cc1 (stereo not given) returns the recorded outcome of this test.
Outgoing: Yes

Incoming: // next record Cc1cccc(Br)c1
Outgoing: No

Incoming: // next record O[C@@H](c1cc(C(F)(F)F)nc2c(C(F)(F)F)cccc12)[C@H]1CCCCN1
Outgoing: Yes

Incoming: // next record O=C(O)c1cccc(Cl)n1
Outgoing: No

Incoming: // next record Cn1cccc1
Outgoing: No

Incoming: // next record O=C1NC2CCCCN2C12CCN(CCCN1c3ccccc3CCc3ccc(Cl)cc31)CC2 (stereo not given)
Outgoing: Yes

Incoming: // next record CC=O
Outgoing: No

Incoming: // next record Nc1ccc2cc3ccc(N)cc3nc2c1
Outgoing: Yes

Incoming: // next record CCC(C)c1ccccc1 (stereo not given)
Outgoing: No

Incoming: // next record Cc1cc(=O)[nH]c(=O)[nH]1
Outgoing: No

Incoming: // next record CCC(C)C(=O)OC (stereo not given)
Outgoing: No

Incoming: // next record Cc1cccc(N(C)C)c1
Outgoing: No

Incoming: // next record CC1=C(/C=C/C(C)=C/C=C/C(C)=C\C=O)C(C)(C)CCC1
Outgoing: No

Incoming: // next record Clc1cc(Cl)c(-c2c(Cl)c(Cl)cc(Cl)c2Cl)cc1Cl
Outgoing: No

Incoming: // next record O=c1cccc[nH]1
Outgoing: No

Incoming: // next record O=Cc1ccc(F)cc1
Outgoing: No

Incoming: // next record CCCCCCCCC(C)=O
Outgoing: No

Incoming: // next record CC(=O)C=O
Outgoing: No

Incoming: // next record CCCCCCCCCCc1ccccc1
Outgoing: No

Incoming: // next record CC(C)=CCCC(C)CCOC(=O)C(C)C (stereo not given)
Outgoing: No

====

- experiment: qHTS assay to identify small molecule agonists of the AP-1 signaling pathway - cell viability counter screen (AID 1159525); further: nearly all actives have a fitted effect of over 55% in size
- applied.conditions: ME-180 (cervical carcinoma) AP-1-bla cells viability, ATP luminescence, 5 h; series mostly up to 76.8 µM
Results filed as inconclusive are left out. Activity calls are given as the source filed them. Calls come from the whole dose curve.
Outcomes you can answer with include only these: active, inactive

See these solved cases before continuing.
compound	class.assignment
CCCCCCCCCCCCCc1ccccc1	inactive
CN(C)CCOC(c1ccccc1)c1ccccc1 (tested in a mixture with another compound)	inactive
CCCCCCCCCCCCCCNCCO	inactive

Incoming: GET /call?item= CCC(C)c1cc([N+](=O)[O-])cc([N+](=O)[O-])c1OC(=O)OC(C)C (stereo unspecified) returns the recorded outcome of this test.
Outgoing: inactive

Incoming: // next record O=C1c2c(O)ccc([N+](=O)[O-])c2C(=O)c2c([N+](=O)[O-])ccc(O)c21
Outgoing: active

Incoming: // next record CCC1(c2cnc[nH]2)Cc2ccccc2C1
Outgoing: inactive

====

- experiment: qHTS assay to identify small molecule antagonists of the androgen receptor (AR) signaling pathway using the MDA cell line in the presence of 0.5 nM R1881 - cell viability counter screen (AID 1259242); further: nearly all actives have a fitted effect of over 45% in size
- applied.conditions: MDA-kb2 viability, CellTiter-Fluor protease fluorescence, 16 h; series mostly up to 92.4 µM
Results filed as inconclusive are left out. Active and inactive are the calls of the source. Calls come from the whole dose curve; as a rule, active = well fitted cell-killing curve with a large enough effect in the repeat runs; inconclusive = weak or mixed curves, or effect the other way; inactive = flat fitted curve, though single readings scatter.
Outcomes you can answer with include only these: 1 (active), 0 (inactive)

See these solved cases before continuing.
compound	class.assignment
COc1cccc(O)c1	0
S=P(N1CC1)(N1CC1)N1CC1	0
O=C1OC(=O)c2cccc3cccc1c23	0

Incoming: GET /call?item= CCCC(=O)OCC(COC(=O)CCC)OC(=O)CCC returns the recorded outcome of this test.
Outgoing: 0

Incoming: // next record C=C1C(C)(C)[C@@]2(Cl)C(Cl)[C@]1(Cl)C(Cl)(Cl)C2(Cl)Cl (stereo partly specified)
Outgoing: 0

Incoming: // next record COC(=O)[C@]1(C)CCC[C@@]2(C)[C@H]1CC=C1C=C(C(C)C)CC[C@@H]12
Outgoing: 0

Incoming: // next record CC(C)(C)c1cc(CCC(=O)NCCCCCCNC(=O)CCc2cc(C(C)(C)C)c(O)c(C(C)(C)C)c2)cc(C(C)(C)C)c1O
Outgoing: 0

Incoming: // next record CCOB(OCC)OCC
Outgoing: 0

Incoming: // next record C=CCCCCCCC=C
Outgoing: 0

Incoming: // next record CC(C)c1ccccc1N
Outgoing: 0

Incoming: // next record C/C=C/C(=O)Oc1c(CCCCCC(C)C)cc([N+](=O)[O-])cc1[N+](=O)[O-]
Outgoing: 1

Incoming: // next record C=CC(=O)OCC(O)COc1ccccc1 (stereo unspecified)
Outgoing: 0

Incoming: // next record CC(C)(C)c1cc(/C=C2\SC(=N)NC2=O)cc(C(C)(C)C)c1O
Outgoing: 0

Incoming: // next record C[Si](C)(C)Cl
Outgoing: 0

Incoming: // next record Cc1cccc(N(C)C)c1
Outgoing: 0

Incoming: // next record CC1(C)COCN1
Outgoing: 0

Incoming: // next record CCc1c(Br)c(Br)c(Br)c(Br)c1Br
Outgoing: 0

Incoming: // next record SCCCCCCCCS
Outgoing: 0

Incoming: // next record O=C(c1ccccc1)c1cc(Cl)ccc1O
Outgoing: 0

Incoming: // next record CNCC[C@H](Oc1cccc2ccccc12)c1cccs1
Outgoing: 1

Incoming: // next record CCCCCCCCCCCCN(CCO)CCO
Outgoing: 1

Incoming: // next record COCC(=O)O[C@]1(CCN(C)CCCc2nc3ccccc3[nH]2)CCc2cc(F)ccc2[C@@H]1C(C)C
Outgoing: 1

Incoming: // next record CCC1CCCCC1
Outgoing: 0

Incoming: // next record Cc1ccc2ccc3cccc4ccc1c2c34
Outgoing: 0

Incoming: // next record c1ccc(Sc2ccccc2)cc1
Outgoing: 0

Incoming: // next record CC(CN(C)C)CN1c2ccccc2CCc2ccccc21 (stereo unspecified)
Outgoing: 0

Incoming: // next record CC(C)CCOCCC(C)C
Outgoing: 0

Incoming: // next record Cc1ccc(N)cc1O
Outgoing: 0

Incoming: // next record CCC(C)C(=O)OC (stereo unspecified)
Outgoing: 0

Incoming: // next record C=CC/C=C/C/C=C/C/C=C/C
Outgoing: 0
